# System: Escherichia coli
# Method: Antimicrobial activity against Arr-2 positive Escherichia coli CGSC 5163 lpxC101 mutant bearing pCTV104
# Type: functional
# reported MIC; entries follow

Given smiles: CO[C@H]1/C=C/O[C@@]2(C)Oc3c(C)c(O)c4c(c3C2=O)C(=O)C(N2CCOCC2)=C(NC(=O)/C(C)=C\C=C\[C@H](C)[C@H](O)[C@@H](C)[C@@H](O)[C@@H](C)[C@H](OC(=O)NCc2ccc(C(F)(F)F)cc2)[C@@H]1C)C4=O
Value units: mg/L
MIC: 1

Given smiles: COc1ccc(CNC(=O)O[C@H]2[C@H](C)[C@H](O)[C@H](C)[C@@H](O)[C@@H](C)/C=C/C=C(/C)C(=O)NC3=C(N4CCOCC4)C(=O)c4c(c(O)c(C)c5c4C(=O)[C@@](C)(O/C=C/[C@H](OC)[C@H]2C)O5)C3=O)cc1
Value units: mg/L
MIC: 0.5

Given smiles: CO[C@H]1/C=C/O[C@@]2(C)Oc3c(C)c(O)c4c(c3C2=O)C(=O)C(N2CCOCC2)=C(NC(=O)/C(C)=C\C=C\[C@H](C)[C@H](O)[C@@H](C)[C@@H](O)[C@@H](C)[C@H](OC(=O)NCc2cccc(Cl)c2)[C@@H]1C)C4=O
Value units: mg/L
MIC: 0.5

Given smiles: CO[C@H]1/C=C/O[C@@]2(C)Oc3c(C)c(O)c4c(c3C2=O)C(=O)C(N2CCOCC2)=C(NC(=O)/C(C)=C\C=C\[C@H](C)[C@H](O)[C@@H](C)[C@@H](O)[C@@H](C)[C@H](OC(=O)N2CCOCC2)[C@@H]1C)C4=O
Value units: mg/L
MIC: 1

Given smiles: CO[C@H]1/C=C/O[C@@]2(C)Oc3c(C)c(O)c4c(c3C2=O)C(=O)C(N2CCOCC2)=C(NC(=O)/C(C)=C\C=C\[C@H](C)[C@H](O)[C@@H](C)[C@@H](O)[C@@H](C)[C@H](OC(=O)NCCO)[C@@H]1C)C4=O
Value units: mg/L
MIC: 8

Given smiles: C=CCNC(=O)O[C@H]1[C@H](C)[C@H](O)[C@H](C)[C@@H](O)[C@@H](C)/C=C/C=C(/C)C(=O)NC2=C(N3CCOCC3)C(=O)c3c(c(O)c(C)c4c3C(=O)[C@@](C)(O/C=C/[C@H](OC)[C@H]1C)O4)C2=O
Value units: mg/L
MIC: 4

Given smiles: CO[C@H]1/C=C/O[C@@]2(C)Oc3c(C)c(O)c4c(c3C2=O)C(=O)C(N2CCOCC2)=C(NC(=O)/C(C)=C\C=C\[C@H](C)[C@H](O)[C@@H](C)[C@@H](O)[C@@H](C)[C@H](OC(=O)NCc2ccc(N(C)C)cc2)[C@@H]1C)C4=O
Value units: mg/L
MIC: 16

Given smiles: CO[C@H]1/C=C/O[C@@]2(C)Oc3c(C)c(O)c4c(c3C2=O)C(=O)C(N2CCOCC2)=C(NC(=O)/C(C)=C\C=C\[C@H](C)[C@H](O)[C@@H](C)[C@@H](O)[C@@H](C)[C@H](OC(=O)NCc2cc(-c3ccccn3)no2)[C@@H]1C)C4=O
Value units: mg/L
MIC: 2

Given smiles: CO[C@H]1/C=C/O[C@@]2(C)Oc3c(C)c(O)c4c(c3C2=O)C(=O)C(N2CCOCC2)=C(NC(=O)/C(C)=C\C=C\[C@H](C)[C@H](O)[C@@H](C)[C@@H](O)[C@@H](C)[C@H](OC(=O)NCCN(C)C)[C@@H]1C)C4=O
Value units: mg/L
MIC: 0.24
